Biological target: NS3 (Hepatitis C virus, UniProt A3EZJ3)
Sequence (A3EZJ3 whole entry): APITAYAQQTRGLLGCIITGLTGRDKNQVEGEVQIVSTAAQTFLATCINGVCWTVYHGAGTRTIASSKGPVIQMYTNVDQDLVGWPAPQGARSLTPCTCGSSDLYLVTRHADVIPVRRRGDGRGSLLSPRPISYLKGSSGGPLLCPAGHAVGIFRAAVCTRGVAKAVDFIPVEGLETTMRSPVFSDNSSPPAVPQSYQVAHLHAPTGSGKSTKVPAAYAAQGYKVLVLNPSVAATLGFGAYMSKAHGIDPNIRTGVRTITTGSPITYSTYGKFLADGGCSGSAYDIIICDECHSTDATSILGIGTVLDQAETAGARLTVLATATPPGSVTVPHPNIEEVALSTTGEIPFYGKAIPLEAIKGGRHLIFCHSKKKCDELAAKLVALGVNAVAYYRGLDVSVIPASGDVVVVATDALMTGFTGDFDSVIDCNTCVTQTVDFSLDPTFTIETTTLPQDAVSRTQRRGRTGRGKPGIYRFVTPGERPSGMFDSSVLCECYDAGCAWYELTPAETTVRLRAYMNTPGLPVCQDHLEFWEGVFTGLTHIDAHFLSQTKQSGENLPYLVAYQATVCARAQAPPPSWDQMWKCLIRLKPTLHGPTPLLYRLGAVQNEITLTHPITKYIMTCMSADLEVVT
Assay: Inhibitory concentration against Hepatitis C virus serine protease
Design: species or system Hepacivirus hominis
*1 amine or outer side, *2 acyl side, *3 side chain or, on linkers, in order; H or OH if unused. Where a SMILES comes first, the peptide text is derived from it. [ ]: non-standard residue; d: D form. The star is where a group is joined. NH(1R-phenylethyl) = C[C@@H](N*)c1ccccc1; Hyp = O=C(O)[C@@H]1C[C@@H](O)CN1; NHPiperonyl = c1cc2c(cc1CN*)OCO2; azaNva = CCCN(N[*:1])C(=O)[*:2]; X10 = CCCN(N*)C(=O)CCc1ccccc1; X1 = c1ccc2c(c1)CC[C@@H]2N*; X11 = C[C@H](N*)C1CCCCC1; Bn = c1ccc(C*)cc1
Measured endpoint: IC50 (nM)
Your answer is read as nM, so omit the unit and give the number.

input: Kindly indicate its recorded IC50. Item: `CCC[C@H](NC(=O)[C@@H]1C[C@@H](OCc2ccccc2)CN1C(=O)[C@@H](NC(=O)[C@@H](NC(=O)[C@@H](CCC(=O)O)NC(=O)[C@H](CC(=O)O)NC(C)=O)[C@@H](C)CC)C(C)C)C(N)=O`
output: 26000

input: Give the measured IC50 for CCCN(NC(=O)[C@@H]1C[C@@H](OCc2ccccc2)CN1C(=O)[C@@H](NC(=O)[C@@H](NC(=O)[C@@H](CCC(=O)O)NC(=O)[C@H](CC(=O)O)NC(C)=O)[C@@H](C)CC)C(C)C)C(=O)CCc1ccccc1 (Ac-D[dE]IV[Hyp](Bn)-X10)
output: 710

input: Return IC50 for the following compound: CCCN(NC(=O)[C@@H]1C[C@@H](OCc2ccccc2)CN1C(=O)[C@@H](NC(=O)[C@@H](NC(=O)[C@@H](CCC(=O)O)NC(=O)[C@H](CC(=O)O)NC(C)=O)[C@@H](C)CC)C(C)C)C(=O)N[C@H](C)c1ccccc1 (Ac-D[dE]IV[Hyp](Bn)[azaNva]-{NH(1R-phenylethyl)})
output: 4300

input: Output IC50 of `CCCCN(NC(=O)[C@@H]1C[C@@H](OCc2ccccc2)CN1C(=O)[C@@H](NC(=O)[C@@H](NC(=O)[C@@H](CCC(=O)O)NC(=O)[C@H](CC(=O)O)NC(C)=O)[C@@H](C)CC)C(C)C)C(=O)N[C@@H](C)c1ccccc1`
output: 99

input: Report measured IC50; entry is CCCN(NC(=O)[C@@H]1C[C@@H](OCc2ccccc2)CN1C(=O)[C@@H](NC(=O)[C@@H](NC(=O)[C@@H](CCC(=O)O)NC(=O)[C@H](CC(=O)O)NC(C)=O)[C@@H](C)CC)C(C)C)C(=O)N[C@@H](C)C1CCCCC1 (Ac-D[dE]IV[Hyp](Bn)[azaNva]-X11)
output: 420

input: Please indicate IC50 recorded for CCCN(NC(=O)[C@@H]1C[C@@H](OCc2ccccc2)CN1C(=O)[C@@H](NC(=O)[C@@H](NC(=O)[C@@H](CCC(=O)O)NC(=O)[C@H](CC(=O)O)NC(C)=O)[C@@H](C)CC)C(C)C)C(=O)N[C@H]1CCc2ccccc21 (Ac-D[dE]IV[Hyp](Bn)[azaNva]-X1)
output: 100

input: // Input: CCCN(NC(=O)[C@@H]1C[C@@H](OCc2ccccc2)CN1C(=O)[C@@H](NC(=O)[C@@H](NC(=O)[C@@H](CCC(=O)O)NC(=O)[C@H](CC(=O)O)NC(C)=O)[C@@H](C)CC)C(C)C)C(=O)NCc1ccc2c(c1)OCO2 (Ac-D[dE]IV[Hyp](Bn)[azaNva]-NHPiperonyl) . Output its IC50 only.
output: 500

input: Give the measured IC50 for `CC[C@H](C)[C@H](NC(=O)[C@@H](CCC(=O)O)NC(=O)[C@H](CC(=O)O)NC(C)=O)C(=O)N[C@H](C(=O)N1C[C@H](OCc2ccccc2)C[C@H]1C(=O)NN(CC(C)C)C(=O)N[C@@H](C)c1ccccc1)C(C)C`
output: 2400

Values compiled from ChEMBL document CHEMBL1148367.
